- Test system: C57BL/6 and Balb/c mice
- experimental-protocol: Peptide vaccination of mice and IFNgamma ELISPOT of spleen or dLN cells
- Type: in vivo, mouse
- run-parameters: Balb/c mice; 100 μg peptide s.c. day0 and day7; FIG. 15
property-measured: immunogenicity (peptide specific IFNgamma ELISPOT response)

>>> measured_value("DVDPGEHYILKTLGIKYFSM (Peptide frgment of human Arginase 1) [Arg1-19, positions 181-200 of human Arginase 1]")
"immunogenic"
>>> measured_value("KTLGIKYFSMTEVDKLGIGK (Peptide fragment of murine Arginase 1) [mARG20, positions 191-210 of murine Arginase 1]")
"immunogenic"
>>> measured_value("GFSWVTPCISAKDIVYIGLR (Peptide fragment of human Arginase 1) [Arg1-17, positions 161-180 of human Arginase 1; murine region identical]")
"immunogenic"

Reference source: patent US11981944B2
